Parameter normalized growth: see the listing below.
experiment: chemical genetic growth profiling, strain panel (AID 1159580);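 note: tested at 20 µM; growth read once vehicle control cultures reached saturation at 30 °C; 1 = growth at the plate median or of vehicle wells; lower values mean less growth of the strain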; details: S. cerevisiae deletion strains, growth OD, locus YDR101C, strain arx1, stronger effect = lower value
Screen size: about 5,500 compounds; about 2,000 (36%) were called active. Roughly 18% stayed inconclusive and do not appear here. Some of the results follow.

Compound: CCS(=O)(=O)CCn1c([N+](=O)[O-])cnc1C
normalized growth: 1.01 (inactive)
--
Compound: COc1cc2c(cc1-c1coc3c4c(c(OC)cc3c1=O)OC(C)(C)C=C4)OCO2
normalized growth: 1 (inactive)
--
Compound: CCCC(=O)Nc1ncnc2c1ncn2C1O[C@@H]2COP(=O)(O)O[C@H]2[C@H]1OC(=O)CCC (stereo partly specified)
normalized growth: 1.02 (inactive)
--
Compound: CC(C)(O)CC[C@@H](O)[C@](C)(O)C1CC[C@@]2(O)C3=CC(=O)C4C[C@@H](O)[C@@H](O)C[C@]4(C)C3CC[C@]12C (stereo partly specified)
normalized growth: 0.984 (inactive)
--
Compound: COc1ccc2c(=O)c(-c3cc4c(cc3OC)OCO4)coc2c1
normalized growth: 0.997 (inactive)
--
Compound: Cc1ncc([N+](=O)[O-])n1CCO
normalized growth: 1.01 (inactive)
--
Compound: COc1ccc2[nH]cc(CCNC(C)=O)c2c1
normalized growth: 1.02 (inactive)
--
Compound: COc1cc2ccc(=O)oc2c(O)c1O
normalized growth: 1.01 (inactive)
--
Compound: Cn1c(=O)[nH]c(=O)c2[nH]cnc21
normalized growth: 0.981 (inactive)
--
Compound: O=c1ccc2cc(O[C@@H]3O[C@H](CO)[C@@H](O)[C@H](O)[C@H]3O)c(O)cc2o1
normalized growth: 0.995 (inactive)
--
Compound: COc1cc(O)c(C(=O)O)c(O)c1
normalized growth: 1.01 (inactive)
